# assay-details: Human HepG2 cell viability assay in 384 well format
# Type: toxicity, cell-based
# Set-up: dose 125 nL, time 70.5 hour; concentration not given beside the values
# condition-parameters: HepG2 cells, read-out: Inhibition
quantity-name: cytotoxicity at 70.5 h (%)
Value expressed in %; do not type the unit.

// solved cases for cytotoxicity at 70.5 h follow
Cc1cc(NC(=O)CN2CCOC(CN(C)C)C2)n(C)n1 (configuration not stated)	17.6
CCC(c1ccncc1)N(C)S(C)(=O)=O (configuration not stated)	-1.1
CCN1C(=O)C(C)(C)c2cc(NC(=O)c3ccco3)ccc21	-7.99
O=C(C1CCCC1)N1CC2(CCN(C3COC3)C2)OCc2ccccc21 (configuration not stated)	-17.3

Short answer for CN(C)CC1CN(Cc2ccc(-n3cccn3)cc2)CCO1 (configuration not stated) : cytotoxicity at 70.5 h was 0.969

Short answer for `Cc1ccc2cnn(CCC(=O)Nc3nc(C)c(C)s3)c2c1` : cytotoxicity at 70.5 h was 4.56

Short answer for `Cc1ncsc1CN1C[C@@H]2CN(S(C)(=O)=O)CCO[C@@H]2C1` : cytotoxicity at 70.5 h was -7.53

###

# assay-details: Human HepG2 cell viability assay in 384 well format
# Assay type: toxicity, cell-based
# Parameters: dose 125 nL, time 70.5 hour; concentration not given beside the values
# condition-parameters: HepG2 cells, read-out: Inhibition
Readings of cytotoxicity at 70.5 h for the listed molecules
Value expressed in %; do not type the unit.

// solved cases for cytotoxicity at 70.5 h follow
CS(=O)(=O)N1CCC(C(=O)NCCCn2cc(Cl)cn2)CC1	-13.1
Cc1ccc(CC2CCCN(S(C)(=O)=O)C2)nc1 (stereo unspecified)	-9.35
CN(C)CCC1CN(C(=O)c2cccc3c2OCC3)CCO1 (stereo unspecified)	30
Cc1oncc1C(=O)NCC1(O)CCc2ccccc2C1 (stereo unspecified)	0.91

Short answer for `COc1nccc(N2CC[C@@H](N3CCN(C)CC3)[C@H](O)C2)c1C#N` : cytotoxicity at 70.5 h was -6.47

Short answer for O=C(C1CCCC1)N1CCCC([C@@H]2C[C@H](C(F)F)n3ncnc3N2)C1 (stereo partly specified) : cytotoxicity at 70.5 h was -6.92

###

# assay-details: Human HepG2 cell viability assay in 384 well format
# Assay type: toxicity, cell-based
# Set-up: dose 125 nL, time 70.5 hour; concentration not given beside the values
# condition-parameters: HepG2 cells, read-out: Inhibition
Readings of cytotoxicity at 70.5 h for the listed compounds
Value expressed in %; do not type the unit.

Cc1n[nH]cc1CNC1CCN(c2ccccc2)CC1	24.8
CCC(=O)N1CCN(C(=O)CCn2cc(Cl)cn2)[C@H]2CS(=O)(=O)C[C@H]21	-5.55
CC(=O)N1N=C(c2cccs2)OC1C(=O)Nc1ccc(C(C)C)cc1 (stereo not drawn)	-2.48
O=C(NCc1c(F)cccc1F)C1CN(C(=O)c2cnccn2)C1	-6.6
CCOc1ccc(C(=O)N2CCCCC2Cn2nc(C)cc2C)cn1 (stereo not drawn)	21

Short answer for CN(C)CC(=O)NC1CC(C)(C)Cc2nc(C(C)(C)C)ncc21 (stereo not drawn) : cytotoxicity at 70.5 h was 46.7

Short answer for COCC1COCCC12CCN(S(=O)(=O)c1ccccc1C)CC2 (stereo not drawn) : cytotoxicity at 70.5 h was 7.67

Short answer for Cc1ccc(S(=O)(=O)N2CCC3(CC(C(=O)NC4CCC4)=NO3)C2)cc1 (stereo not drawn) : cytotoxicity at 70.5 h was 18.4

Short answer for COc1cccc(-c2nc(CNC(C)Cn3cccn3)cs2)c1 (stereo not drawn) : cytotoxicity at 70.5 h was 12.8

Short answer for N#Cc1cccc(C(=O)N2CCCC(O)(CO)CC2)c1 (stereo not drawn) : cytotoxicity at 70.5 h was -4.07

Short answer for COc1ccc(C(C)N2CCC(CNC(C)=O)CC2)cc1Cl (stereo not drawn) : cytotoxicity at 70.5 h was -1.84

Short answer for `CCS(=O)(=O)c1ccc(CNc2c(Cl)cccc2C#N)cc1` : cytotoxicity at 70.5 h was -1.09

Short answer for CC(=O)N1CCCC(c2nc(N(C)C)ncc2-c2ccccc2)C1 (stereo not drawn) : cytotoxicity at 70.5 h was 3.58

Short answer for `CCCc1noc(CN2CCC(c3ccnn3CCO)CC2)n1` : cytotoxicity at 70.5 h was -0.994

Short answer for `COc1ccc(-c2noc([C@@H](C)NC(=O)CC(C)C)c2C(=O)O)cc1` : cytotoxicity at 70.5 h was -8.52

Short answer for CCC(C(=O)N(C)CCC1=CCN(C)CC1)c1ccccc1 (stereo not drawn) : cytotoxicity at 70.5 h was 57.9

Short answer for `O=C(c1ccccn1)N1CC[C@H]2C(=O)N(c3ccsc3)CCO[C@H]2C1` : cytotoxicity at 70.5 h was -15.7

Short answer for `COc1cccc(OCCNCc2c(C)nn(C)c2N(C)C)c1` : cytotoxicity at 70.5 h was -4.8

Short answer for `CC(C)(C)CC(=O)N1CC[C@@H](CC(=O)O)[C@@H](CCN2CCCCC2)C1` : cytotoxicity at 70.5 h was 8.46

Short answer for `COc1ccc(F)c(CN2CCC3(CCC(=O)N(CC(N)=O)C3)CC2)c1` : cytotoxicity at 70.5 h was 5.8
